System: NIH 189 mouse fibroblast cells
protocol: MTT assay (cytotoxicity)
Format: cell-based
test-conditions: read-out: Anticancer Activity (IC50)
metric-name: IC50 (nM)
Report the value in nM with no unit label.

C=C(C(=O)OC)[C@@H](c1ccccc1)[C@H](O)c1ccc([N+](=O)[O-])cc1 [CT22]: 3000

--- query ---
Query string: Indicate its recorded IC50; the compound in question is C=C1C(=O)O[C@@H](c2ccccc2)C1c1ccccc1 (stereo in doubt) [CT14]
Result string: 1000

Entry source: patent US20070203224A1
